Biological target: HIV-1 Env of PVO.04 (HIV-1)
Assay: cell-based or functional assay
Attribute measured: neutralization IC50 (µg/mL)
The reply should be a number in µg/mL, with the unit left off.

CAP256-VRC26.08 (antibody, V domains shown) VH: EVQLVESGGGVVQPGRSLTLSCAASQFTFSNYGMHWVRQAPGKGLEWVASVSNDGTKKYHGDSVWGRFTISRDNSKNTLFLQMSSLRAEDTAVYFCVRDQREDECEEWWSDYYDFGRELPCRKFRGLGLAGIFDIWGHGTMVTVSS VL: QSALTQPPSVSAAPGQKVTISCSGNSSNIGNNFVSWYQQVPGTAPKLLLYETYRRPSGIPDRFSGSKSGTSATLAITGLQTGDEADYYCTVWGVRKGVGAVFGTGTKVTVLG
11.8

Please find the next binder below.
QUERY: Input CAP256-VRC26.06 (antibody, V domains shown) VH: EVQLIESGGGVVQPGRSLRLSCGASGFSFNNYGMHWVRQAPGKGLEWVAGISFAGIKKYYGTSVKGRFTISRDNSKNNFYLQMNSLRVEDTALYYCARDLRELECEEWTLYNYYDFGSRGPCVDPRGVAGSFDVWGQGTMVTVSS VL: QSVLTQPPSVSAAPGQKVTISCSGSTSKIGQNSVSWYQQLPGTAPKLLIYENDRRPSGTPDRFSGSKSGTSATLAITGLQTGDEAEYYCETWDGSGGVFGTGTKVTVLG , output reported neutralization IC50.
RESULT: 0.308
